test system: KM12; experiment: NCI tumour cell line growth inhibition, 48 h
Calls of active or inactive are those of the source. No stated cut-off is given here; in the data, active = GI50 up to about 1.1 µM and inactive = higher.
READOUT NAME: GI50

**Q:** Look at this compound and give its reported GI50. O=C(O)c1ccc2c(c1)CC1(C2)Cc2ccccc2C1=O (configuration not stated)
**A:** > 100 µM (inactive)

**Q:** Need GI50 of CC(C)C1CC[C@@H](C)C[C@@]1(O)CC(N)=O (some centres not stated) , thanks.
**A:** > 100 µM (inactive)

**Q:** Value lookup for GI50; key = COC(=O)c1cc(C#N)[nH]c1-c1ccc(C)s1
**A:** 92.7 µM (inactive)

**Q:** Sample C=C(Br)CNC(=O)Nc1ccc(Cl)c(Cl)c1 — what was its GI50?
**A:** 17.3 µM (inactive)

**Q:** Give the measured GI50 of S=c1[nH]c(Cl)cc2nc(Cl)cn12 .
**A:** 4.14 µM (inactive)

**Q:** Need GI50, item CC1OC(O[C@H]2CC[C@]3(C)[C@H]4CC=C5[C@@H]6[C@@H](C)[C@H](C)CC[C@]6(C(=O)O)CC[C@@]5(C(=O)O)[C@]4(C)CC[C@H]3C2(C)C)C(O)C(O)C1O (some centres not stated)
**A:** > 75 µM (inactive)

**Q:** What value of GI50 has been recorded for this entry: COc1ccc(OC)c(/C(C)=N/NC(N)=S)c1
**A:** > 100 µM (inactive)
